- protocol: Particle size and PDI by dynamic light scattering (Malvern Zetasizer)
- Type: physicochemical
- experimental-parameters: lipid/DSPC/CHOL/AVANTI 880150P 50/28/18/4, N/P 3.43
observable: PDI
Lab note: record just the number, no unit beside it.

Asked: Fill blank: measured PDI of the molecule CCCCC/C=C\C/C=C\CCCCCCCCOCC(Cn1ccnc1)OCCOCCO[C@H]1CC[C@@]2(C)C(=CCC3C2CC[C@@]2(C)C3CC[C@@H]2[C@H](C)CCCC(C)C)C1 (some centres unmarked) is ____.
Given back: 0.131

Asked: Also need CCCCC/C=C\C/C=C\CCCCCCCCOCC(CN1CCC(N(C)C)C1)OCCOCCO[C@H]1CC[C@@]2(C)C(=CC[C@H]3[C@@H]4CC[C@H]([C@H](C)CCCC(C)C)[C@@]4(C)CC[C@@H]32)C1 (some centres unmarked) , thanks.
Given back: 0.15

Asked: Also need CCCCC/C=C\C/C=C\CCCCCCCCOC[C@@H](CN1CCCCC1)OCCOCCO[C@H]1CC[C@@]2(C)C(=CCC3C2CC[C@@]2(C)C3CC[C@@H]2[C@H](C)CCCC(C)C)C1 (some centres unmarked) , thanks.
Given back: 0.16

Asked: Also need CCCCC/C=C\C/C=C\CCCCCCCCOCC(CN1CCC(N2CCOCC2)C1)OCCOCCO[C@H]1CC[C@@]2(C)C(=CC[C@H]3[C@@H]4CC[C@H]([C@H](C)CCCC(C)C)[C@@]4(C)CC[C@@H]32)C1 (some centres unmarked) , thanks.
Given back: 0.25

Asked: Also need CCCCC/C=C\C/C=C\CCCCCCCCOCC(CN1CC2CCCC2C1)OCCOCCO[C@H]1CC[C@@]2(C)C(=CC[C@H]3[C@@H]4CC[C@H]([C@H](C)CCCC(C)C)[C@@]4(C)CC[C@@H]32)C1 (some centres unmarked) , thanks.
Given back: 0.143

Asked: Also need CCCCC/C=C\C/C=C\CCCCCCCCOCC(CN1CC2CCCN(C(=O)OC(C)(C)C)C2C1)OCCOCCO[C@H]1CC[C@@]2(C)C(=CCC3C2CC[C@@]2(C)C3CC[C@@H]2[C@H](C)CCCC(C)C)C1 (some centres unmarked) , thanks.
Given back: 0.37

Asked: Also need CCCCC/C=C\C/C=C\CCCCCCCCOCC(CN1CCC(OC)CC1)OCCOCCO[C@H]1CC[C@@]2(C)C(=CCC3C2CC[C@@]2(C)C3CC[C@@H]2[C@H](C)CCCC(C)C)C1 (some centres unmarked) , thanks.
Given back: 0.069

Asked: Also need CCCCC/C=C\C/C=C\CCCCCCCCOCC(CN1CC[C@H]2OC(C)(C)O[C@H]2C1)OCCOCCO[C@H]1CC[C@@]2(C)C(=CCC3C2CC[C@@]2(C)C3CC[C@@H]2[C@H](C)CCCC(C)C)C1 (some centres unmarked) , thanks.
Given back: 0.2

Asked: Also need CCCCC/C=C\C/C=C\CCCCCCCCOCC(CN1CCC(CCC)C1)OCCOCCO[C@H]1CC[C@@]2(C)C(=CCC3C2CC[C@@]2(C)C3CC[C@@H]2[C@H](C)CCCC(C)C)C1 (some centres unmarked) , thanks.
Given back: 0.22

Asked: Also need CCCCC/C=C\C/C=C\CCCCCCCCOCC(CN1CCCC[C@@H]1C)OCCOCCO[C@H]1CC[C@@]2(C)C(=CCC3C2CC[C@@]2(C)C3CC[C@@H]2[C@H](C)CCCC(C)C)C1 (some centres unmarked) , thanks.
Given back: 0.065

Asked: Also need CCCCC/C=C\C/C=C\CCCCCCCCOCC(CN1CC=CC1)OCCOCCO[C@H]1CC[C@@]2(C)C(=CCC3C2CC[C@@]2(C)C3CC[C@@H]2[C@H](C)CCCC(C)C)C1 (some centres unmarked) , thanks.
Given back: 0.18

Asked: Also need CCCCC/C=C\C/C=C\CCCCCCCCOCC(CN1CCOCC1)OCCCCO[C@H]1CC[C@@]2(C)C(=CCC3C2CC[C@@]2(C)C3CC[C@@H]2[C@H](C)CCCC(C)C)C1 (some centres unmarked) , thanks.
Given back: 0.216

Asked: Also need CCCCC/C=C\C/C=C\CCCCCCCCOCC(CN1CCC(O[Si](C)(C)C(C)(C)C)C1)OCCOCCO[C@H]1CC[C@@]2(C)C(=CC[C@H]3[C@@H]4CC[C@H]([C@H](C)CCCC(C)C)[C@@]4(C)CC[C@@H]32)C1 (some centres unmarked) , thanks.
Given back: 0.11

Asked: Also need CCCCC/C=C\C/C=C\CCCCCCCCOCC(CN1CCC2(CC1)OCCCO2)OCCOCCO[C@H]1CC[C@@]2(C)C(=CCC3C2CC[C@@]2(C)C3CC[C@@H]2[C@H](C)CCCC(C)C)C1 (some centres unmarked) , thanks.
Given back: 0.178

Asked: Also need CCCCC/C=C\C/C=C\CCCCCCCCOC[C@H](CN1CCCCC1)OCCOCCO[C@H]1CC[C@@]2(C)C(=CCC3C2CC[C@@]2(C)C3CC[C@@H]2[C@H](C)CCCC(C)C)C1 (some centres unmarked) , thanks.
Given back: 0.24

Asked: Also need CCCCC/C=C\C/C=C\CCCCCCCCOCC(CN1CCC(O)C1)OCCOCCO[C@H]1CC[C@@]2(C)C(=CC[C@H]3[C@@H]4CC[C@H]([C@H](C)CCCC(C)C)[C@@]4(C)CC[C@@H]32)C1 (some centres unmarked) , thanks.
Given back: 0.18

Asked: Also need CCCCC/C=C\C/C=C\CCCCCCCCOCC(CN1CCc2ccccc2C1)OCCOCCO[C@H]1CC[C@@]2(C)C(=CC[C@H]3[C@@H]4CC[C@H]([C@H](C)CCCC(C)C)[C@@]4(C)CC[C@@H]32)C1 (some centres unmarked) , thanks.
Given back: 0.101
